# Experiment: Liver microsomes stability, human
# Measurement parameters: human, microsomes

Molecule | half-life at 2 μM
CCCCC/C=C\C/C=C\CCCCCCCC(=O)n1cc(C[C@H]2CCCN2C)c2ccccc21 [Compound I-5] | 3.11 h
[2H]C([2H])(c1cn(C(=O)CCCCCCC/C=C\C/C=C\CCCCC)c2ccccc12)[C@H]1CCCN1C([2H])([2H])[2H] [Compound I-2] | 3.61 h
CCCCC/C=C\C/C=C\CCCCCCCC(=O)n1cc(C[C@H]2CCCN2C)c2cc(OC)ccc21 [Compound I-6] | 4.88 h
CCCCC/C=C\C/C=C\CCCCCCCC(=O)n1cc(CCN(C)C)c2ccccc21 [Compound I-8] | 12 h

###

Each record here notes measured CLint scaled at 2 μM.
# Experiment: Liver microsomes stability, rat
# Measurement parameters: rat, microsomes

Structure string | CLint scaled at 2 μM (mL/min/kg)
CCCCC/C=C\C/C=C\CCCCCCCC(=O)n1cc(CCN(C)C)c2ccccc21 | 16.9
CCCCC/C=C\C/C=C\CCCCCCCC(=O)n1cc(C[C@H]2CCCN2C)c2ccccc21 | 45.1
[2H]C([2H])(c1cn(C(=O)CCCCCCC/C=C\C/C=C\CCCCC)c2ccccc12)[C@H]1CCCN1C([2H])([2H])[2H] | 54.2
CCCCC/C=C\C/C=C\CCCCCCCC(=O)n1cc(C[C@H]2CCCN2C)c2cc(OC)ccc21 | 19.2

###

// CLint scaled at 2 μM lookup, one value per entry
# Experiment: Liver microsomes stability, human
# Measurement parameters: human, microsomes

Compound | Units of measure | CLint scaled at 2 μM
CCCCC/C=C\C/C=C\CCCCCCCC(=O)n1cc(C[C@H]2CCCN2C)c2ccccc21 [Compound I-5] | mL/min/kg | 9.3
[2H]C([2H])(c1cn(C(=O)CCCCCCC/C=C\C/C=C\CCCCC)c2ccccc12)[C@H]1CCCN1C([2H])([2H])[2H] [Compound I-2] | mL/min/kg | 8.03
CCCCC/C=C\C/C=C\CCCCCCCC(=O)n1cc(CCN(C)C)c2ccccc21 [Compound I-8] | mL/min/kg | 2.42
CCCCC/C=C\C/C=C\CCCCCCCC(=O)n1cc(C[C@H]2CCCN2C)c2cc(OC)ccc21 [Compound I-6] | mL/min/kg | 5.94

###

# Experiment: Liver microsomes stability, rat
# Measurement parameters: rat, microsomes
# microsomal CLint at 2 μM per entry

Structure string | Units of measure | microsomal CLint at 2 μM
CCCCC/C=C\C/C=C\CCCCCCCC(=O)n1cc(C[C@H]2CCCN2C)c2ccccc21 | µL/min/mg | 25.2
CCCCC/C=C\C/C=C\CCCCCCCC(=O)n1cc(C[C@H]2CCCN2C)c2cc(OC)ccc21 | µL/min/mg | 10.7
CCCCC/C=C\C/C=C\CCCCCCCC(=O)n1cc(CCN(C)C)c2ccccc21 | µL/min/mg | 9.44
[2H]C([2H])(c1cn(C(=O)CCCCCCC/C=C\C/C=C\CCCCC)c2ccccc12)[C@H]1CCCN1C([2H])([2H])[2H] | µL/min/mg | 30.2

###

# Experiment: Liver microsomes stability, rat
# Measurement parameters: Rat liver microsomes
Items are presented alongside their recorded Predicted hepatic CL.
Readout: Predicted hepatic CL (mL/min/kg)

Molecule | Value
CCCCC/C=C\C/C=C\CCCCCCCC(=O)n1cc(C[C@H]2CCCN2C)c2ccccc21 [Compound I-5] | 24.83
CCCCC/C=C\C/C=C\CCCCCCCC(=O)n1cc(CCN(C)C)c2ccccc21 [Compound I-8] | 12.94
[2H]C([2H])(c1cn(C(=O)CCCCCCC/C=C\C/C=C\CCCCC)c2ccccc12)[C@H]1CCCN1C([2H])([2H])[2H] [Compound I-2] | 27.34
CCCCC/C=C\C/C=C\CCCCCCCC(=O)n1cc(C[C@H]2CCCN2C)c2cc(OC)ccc21 [Compound I-6] | 14.24
